Read-out: CYP4A11 (gene 1579)
method.summary: LTEA_HepaRG_CYP4A11: Life Technologies and Expression Analysis (LTEA) Assay for CYP4A11 using HepaRG (AID 2283486)
condition.label: mRNA level, 48 h; actives raise or lower the signal
Active and inactive are the calls of the source. The calls were made as follows: active = hit-call score of the fitted dose curve at least 0.9, where 1 is the maximum; inactive = score below 0.9.
Hi! Could you answer with just one of these? active, inactive

Example entries and their recorded answers appear below.
[
  {
    "compound": "CCCCCCCC/C=C\\CCCCCCCC(=O)OC[C@@H](O)[C@H]1OC[C@H](O)[C@H]1O",
    "category": "inactive"
  },
  {
    "compound": "CCCOc1ccc(S(=O)(=O)N2CCN(CC)CC2)cc1-c1nc2c(CC)n(Cc3ccccn3)nc2c(=O)[nH]1",
    "category": "active"
  }
]

Ask | I'd appreciate the recorded outcome for "CCCCCCCCCC" from this test.
Reply | inactive

Ask | I'd appreciate the recorded outcome for "CNC(C)=O" from this test.
Reply | inactive

Ask | I'd appreciate the recorded outcome for "O=c1[nH]cnc2c1ncn2[C@H]1CC[C@@H](CO)O1" from this test.
Reply | inactive

Ask | I'd appreciate the recorded outcome for CCCCC(CC)C(=O)OCCOCCOCCOC(=O)C(CC)CCCC (stereo not drawn) from this test.
Reply | active

Ask | I'd appreciate the recorded outcome for "OCc1ccccc1" from this test.
Reply | inactive

Ask | I'd appreciate the recorded outcome for "c1ccc(C(O[C@@H]2CCCN(CCc3ccc4c(c3)OCO4)C2)c2ccccc2)cc1" from this test.
Reply | active

Ask | I'd appreciate the recorded outcome for "Cn1c(=O)c2[nH]cnc2n(C)c1=O" from this test.
Reply | inactive

Ask | I'd appreciate the recorded outcome for "CCCCCOC(C)=O" from this test.
Reply | inactive

Ask | I'd appreciate the recorded outcome for "CCCC(CCC)C(=O)O" from this test.
Reply | inactive

Ask | I'd appreciate the recorded outcome for "Cc1ncc([C@@H](CCCCCCc2ccc3c(n2)NCCC3)CC(=O)O)cn1" from this test.
Reply | active

Ask | I'd appreciate the recorded outcome for CC(C)CC(C)O (stereo not drawn) from this test.
Reply | inactive

====

test.system: sheep Cyclooxygenase-1 (Cox1), PTGS1 (gene 443551) (UniProt P05979)
Sequence (P05979 whole entry, looked up): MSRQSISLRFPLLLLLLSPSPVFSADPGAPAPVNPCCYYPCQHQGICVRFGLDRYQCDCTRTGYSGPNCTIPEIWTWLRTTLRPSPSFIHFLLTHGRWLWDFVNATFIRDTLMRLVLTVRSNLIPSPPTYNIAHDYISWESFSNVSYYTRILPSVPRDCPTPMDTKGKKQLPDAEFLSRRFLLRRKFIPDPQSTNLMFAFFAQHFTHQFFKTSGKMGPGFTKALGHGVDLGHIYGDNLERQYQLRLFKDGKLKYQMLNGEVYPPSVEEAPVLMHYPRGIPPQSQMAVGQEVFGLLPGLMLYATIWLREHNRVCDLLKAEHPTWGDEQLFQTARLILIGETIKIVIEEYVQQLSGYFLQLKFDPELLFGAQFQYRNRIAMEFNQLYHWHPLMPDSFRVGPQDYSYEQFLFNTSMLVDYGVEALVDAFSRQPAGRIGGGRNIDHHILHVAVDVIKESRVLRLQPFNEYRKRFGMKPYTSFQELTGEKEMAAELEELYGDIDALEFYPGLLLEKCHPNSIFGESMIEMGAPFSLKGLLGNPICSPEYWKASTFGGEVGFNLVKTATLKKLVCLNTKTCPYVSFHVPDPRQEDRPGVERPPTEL
method.summary: NVS_ENZ_oCOX1: NovaScreen (NVS) Enzymatic Assay for sheep Cyclooxygenase-1 (Cox1) (AID 2283239);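 also: actives reduce cyclooxygenase activity so potencies are for inhibitors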
Results filed as inconclusive are left out. Activity calls are given as the source filed them. Rule for the calls: active = hit-call score of the fitted dose curve at least 0.9, where 1 is the maximum; inconclusive = response in the unintended direction; inactive = score below 0.9.
Hi! Could you answer with just one of these? active, inactive

Ask | I'd appreciate the recorded outcome for "C=CCc1cc(S(=O)(=O)c2ccc(O)c(CC=C)c2)ccc1O" from this test.
Reply | active

Ask | I'd appreciate the recorded outcome for "O=C1CN(N=Cc2ccc([N+](=O)[O-])o2)C(=O)N1" from this test.
Reply | inactive

Ask | I'd appreciate the recorded outcome for "OCc1c[nH]c2ccccc12" from this test.
Reply | active

Ask | I'd appreciate the recorded outcome for "CC[C@H](C)C(=O)O[C@H]1C[C@H](O)C=C2C=C[C@H](C)[C@H](CC[C@@H](O)C[C@@H](O)CC(=O)O)[C@H]21" from this test.
Reply | inactive

Ask | I'd appreciate the recorded outcome for "O=C(O)c1cccc(C(=O)O)c1" from this test.
Reply | inactive

Ask | I'd appreciate the recorded outcome for "O=C(N[C@H](CO)[C@H](O)c1ccc([N+](=O)[O-])cc1)C(Cl)Cl" from this test.
Reply | inactive

====

test.system: rat Serotonin Transporter (SERT), Slc6a4 (gene 25553) (UniProt P31652)
Sequence (P31652 whole entry, looked up): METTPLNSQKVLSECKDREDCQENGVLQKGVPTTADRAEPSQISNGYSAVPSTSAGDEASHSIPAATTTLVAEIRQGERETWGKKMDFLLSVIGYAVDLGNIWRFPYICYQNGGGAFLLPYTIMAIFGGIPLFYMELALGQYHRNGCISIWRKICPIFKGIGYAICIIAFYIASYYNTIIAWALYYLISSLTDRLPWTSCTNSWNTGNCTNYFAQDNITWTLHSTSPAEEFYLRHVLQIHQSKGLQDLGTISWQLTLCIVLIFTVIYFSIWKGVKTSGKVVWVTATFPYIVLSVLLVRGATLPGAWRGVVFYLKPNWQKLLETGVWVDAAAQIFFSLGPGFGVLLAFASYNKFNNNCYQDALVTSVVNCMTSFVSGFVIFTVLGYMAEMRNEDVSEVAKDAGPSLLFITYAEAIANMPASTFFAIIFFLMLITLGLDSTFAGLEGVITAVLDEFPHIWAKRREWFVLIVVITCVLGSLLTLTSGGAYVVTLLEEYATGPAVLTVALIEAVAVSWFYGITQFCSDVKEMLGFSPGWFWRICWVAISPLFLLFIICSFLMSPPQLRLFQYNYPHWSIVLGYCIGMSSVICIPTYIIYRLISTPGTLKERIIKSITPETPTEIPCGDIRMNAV
method.summary: NVS_TR_rSERT: NovaScreen (NVS) Transporter Assay for rat Serotonin Transporter (SERT) (AID 2283375)
Inconclusive results are not listed. Active and inactive are the calls of the source. Rule for the calls: active = hit-call score of the fitted dose curve at least 0.9, where 1 is the maximum; inconclusive = response in the unintended direction; inactive = score below 0.9.

[
  {
    "compound.smiles": "CCCCCCCCCC",
    "test.system": "rat Serotonin Transporter (SERT), Slc6a4 (gene 25553) (UniProt P31652)",
    "outcome": "inactive"
  },
  {
    "compound.smiles": "Cc1ccc(S(=O)(=O)NC(=O)NN2CCCCCC2)cc1",
    "test.system": "rat Serotonin Transporter (SERT), Slc6a4 (gene 25553) (UniProt P31652)",
    "outcome": "inactive"
  },
  {
    "compound.smiles": "CCCOc1ccc(S(=O)(=O)N2CCN(CC)CC2)cc1-c1nc2c(CC)n(Cc3ccccn3)nc2c(=O)[nH]1",
    "test.system": "rat Serotonin Transporter (SERT), Slc6a4 (gene 25553) (UniProt P31652)",
    "outcome": "inactive"
  },
  {
    "compound.smiles": "O=S(=O)(O)c1ccc(N=Nc2c(O)ccc3cc(S(=O)(=O)O)ccc23)cc1",
    "test.system": "rat Serotonin Transporter (SERT), Slc6a4 (gene 25553) (UniProt P31652)",
    "outcome": "inactive"
  }
]

====

method.summary: APR_HepG2_CellCycleArrest_72hr: Apredica 72-hour HepG2 Assay for Cell Cycle Arrest (AID 2282914)
condition.label: high-content imaging, actives raise or lower the signal
Active and inactive are the calls of the source. How the source made its calls: active means hit-call score of the fitted dose curve at least 0.9, where 1 is the maximum; inactive means score below 0.9.
Hi! Could you answer with just one of these? 1 = active, -1 = inactive

Example entries and their recorded answers appear below.
[
  {
    "compound.smiles": "COCc1nnc(-c2ccc[n+]([O-])c2)n1-c1c(Cl)c(Cl)cc2[nH]c(=O)c(=O)[nH]c12",
    "category": -1
  },
  {
    "compound.smiles": "OC(CCl)CCl",
    "category": -1
  },
  {
    "compound.smiles": "O=S(=O)(O)c1ccc(N=Nc2c(O)ccc3cc(S(=O)(=O)O)ccc23)cc1",
    "category": -1
  },
  {
    "compound.smiles": "COc1cc2c(c(OC)c1OC)-c1ccc(OC)c(=O)cc1[C@@H](NC(C)=O)CC2",
    "category": 1
  },
  {
    "compound.smiles": "OCCOCCOCCO",
    "category": -1
  }
]

Continue with the compound presented below.
Ask | I'd appreciate the recorded outcome for "NC(N)=O" from this test.
Reply | -1

====

method.summary: ATG_PPRE_CIS: Attagene CIS-FACTORIAL HepG2 Assay for human Peroxisome Proliferator-activated Response Element (PPRE) (AID 2282958)
condition.label: HepG2 PPRE cis-element reporter, Attagene transcription factor profiling; actives raise or lower the signal
Active and inactive are the calls of the source. How the source made its calls: active means hit-call score of the fitted dose curve at least 0.9, where 1 is the maximum; inactive means score below 0.9.
Hi! Could you answer with just one of these? active, inactive

Example entries and their recorded answers appear below.
[
  {
    "compound": "FC(F)=C(F)C(F)(F)C(F)(F)C(F)(F)C(F)(F)C(F)(F)C(F)(F)F",
    "category": "inactive"
  },
  {
    "compound": "FC(F)(F)C(F)(F)C(F)(F)C(F)(F)C(F)(F)C(F)(F)I",
    "category": "inactive"
  },
  {
    "compound": "OC(Cn1cncn1)(Cn1cncn1)c1ccc(F)cc1F",
    "category": "inactive"
  }
]

Ask | I'd appreciate the recorded outcome for "NC(=O)NN=Cc1ccc([N+](=O)[O-])o1" from this test.
Reply | inactive

Ask | I'd appreciate the recorded outcome for "C[C@@H](Oc1ccc(CNC(=O)c2cccnc2Oc2ccc3c(c2)OCO3)c(F)c1)C(=O)O" from this test.
Reply | inactive

Ask | I'd appreciate the recorded outcome for "CCCCCCOC(=O)CC(CC(=O)OCCCCCC)(OC(=O)CCC)C(=O)OCCCCCC" from this test.
Reply | inactive

Ask | I'd appreciate the recorded outcome for "NC(=O)N1c2ccccc2C=Cc2ccccc21" from this test.
Reply | inactive

Ask | I'd appreciate the recorded outcome for "c1ccc2ncccc2c1" from this test.
Reply | inactive

Ask | I'd appreciate the recorded outcome for "COS(C)(=O)=O" from this test.
Reply | inactive

====

method.summary: TOX21_p53_BLA_p4_viability: Viability Assessment in the Tox21 HCT-116 p53 Agonism Beta-lactamase Assay, Phase 4 (AID 2283597);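 also: hits lower the luminescence signal meaning cytotoxicity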
Results filed as inconclusive are left out. Calls of active or inactive are those of the source. How the source made its calls: active means hit-call score of the fitted dose curve at least 0.9, where 1 is the maximum; inconclusive means response in the unintended direction; inactive means score below 0.9.

[
  {
    "compound": "CCCCC(CC)C(=O)OCCOCCOCCOC(=O)C(CC)CCCC (stereo not drawn)",
    "outcome": "inactive"
  },
  {
    "compound": "c1ccc2cc3ccccc3cc2c1",
    "outcome": "inactive"
  },
  {
    "compound": "O=S1(=O)CCCO1",
    "outcome": "inactive"
  }
]

====

test.system: Tyrosine-protein phosphatase non-receptor type 13 (Homo sapiens) (UniProt Q12923)
Sequence (Q12923 whole entry, looked up): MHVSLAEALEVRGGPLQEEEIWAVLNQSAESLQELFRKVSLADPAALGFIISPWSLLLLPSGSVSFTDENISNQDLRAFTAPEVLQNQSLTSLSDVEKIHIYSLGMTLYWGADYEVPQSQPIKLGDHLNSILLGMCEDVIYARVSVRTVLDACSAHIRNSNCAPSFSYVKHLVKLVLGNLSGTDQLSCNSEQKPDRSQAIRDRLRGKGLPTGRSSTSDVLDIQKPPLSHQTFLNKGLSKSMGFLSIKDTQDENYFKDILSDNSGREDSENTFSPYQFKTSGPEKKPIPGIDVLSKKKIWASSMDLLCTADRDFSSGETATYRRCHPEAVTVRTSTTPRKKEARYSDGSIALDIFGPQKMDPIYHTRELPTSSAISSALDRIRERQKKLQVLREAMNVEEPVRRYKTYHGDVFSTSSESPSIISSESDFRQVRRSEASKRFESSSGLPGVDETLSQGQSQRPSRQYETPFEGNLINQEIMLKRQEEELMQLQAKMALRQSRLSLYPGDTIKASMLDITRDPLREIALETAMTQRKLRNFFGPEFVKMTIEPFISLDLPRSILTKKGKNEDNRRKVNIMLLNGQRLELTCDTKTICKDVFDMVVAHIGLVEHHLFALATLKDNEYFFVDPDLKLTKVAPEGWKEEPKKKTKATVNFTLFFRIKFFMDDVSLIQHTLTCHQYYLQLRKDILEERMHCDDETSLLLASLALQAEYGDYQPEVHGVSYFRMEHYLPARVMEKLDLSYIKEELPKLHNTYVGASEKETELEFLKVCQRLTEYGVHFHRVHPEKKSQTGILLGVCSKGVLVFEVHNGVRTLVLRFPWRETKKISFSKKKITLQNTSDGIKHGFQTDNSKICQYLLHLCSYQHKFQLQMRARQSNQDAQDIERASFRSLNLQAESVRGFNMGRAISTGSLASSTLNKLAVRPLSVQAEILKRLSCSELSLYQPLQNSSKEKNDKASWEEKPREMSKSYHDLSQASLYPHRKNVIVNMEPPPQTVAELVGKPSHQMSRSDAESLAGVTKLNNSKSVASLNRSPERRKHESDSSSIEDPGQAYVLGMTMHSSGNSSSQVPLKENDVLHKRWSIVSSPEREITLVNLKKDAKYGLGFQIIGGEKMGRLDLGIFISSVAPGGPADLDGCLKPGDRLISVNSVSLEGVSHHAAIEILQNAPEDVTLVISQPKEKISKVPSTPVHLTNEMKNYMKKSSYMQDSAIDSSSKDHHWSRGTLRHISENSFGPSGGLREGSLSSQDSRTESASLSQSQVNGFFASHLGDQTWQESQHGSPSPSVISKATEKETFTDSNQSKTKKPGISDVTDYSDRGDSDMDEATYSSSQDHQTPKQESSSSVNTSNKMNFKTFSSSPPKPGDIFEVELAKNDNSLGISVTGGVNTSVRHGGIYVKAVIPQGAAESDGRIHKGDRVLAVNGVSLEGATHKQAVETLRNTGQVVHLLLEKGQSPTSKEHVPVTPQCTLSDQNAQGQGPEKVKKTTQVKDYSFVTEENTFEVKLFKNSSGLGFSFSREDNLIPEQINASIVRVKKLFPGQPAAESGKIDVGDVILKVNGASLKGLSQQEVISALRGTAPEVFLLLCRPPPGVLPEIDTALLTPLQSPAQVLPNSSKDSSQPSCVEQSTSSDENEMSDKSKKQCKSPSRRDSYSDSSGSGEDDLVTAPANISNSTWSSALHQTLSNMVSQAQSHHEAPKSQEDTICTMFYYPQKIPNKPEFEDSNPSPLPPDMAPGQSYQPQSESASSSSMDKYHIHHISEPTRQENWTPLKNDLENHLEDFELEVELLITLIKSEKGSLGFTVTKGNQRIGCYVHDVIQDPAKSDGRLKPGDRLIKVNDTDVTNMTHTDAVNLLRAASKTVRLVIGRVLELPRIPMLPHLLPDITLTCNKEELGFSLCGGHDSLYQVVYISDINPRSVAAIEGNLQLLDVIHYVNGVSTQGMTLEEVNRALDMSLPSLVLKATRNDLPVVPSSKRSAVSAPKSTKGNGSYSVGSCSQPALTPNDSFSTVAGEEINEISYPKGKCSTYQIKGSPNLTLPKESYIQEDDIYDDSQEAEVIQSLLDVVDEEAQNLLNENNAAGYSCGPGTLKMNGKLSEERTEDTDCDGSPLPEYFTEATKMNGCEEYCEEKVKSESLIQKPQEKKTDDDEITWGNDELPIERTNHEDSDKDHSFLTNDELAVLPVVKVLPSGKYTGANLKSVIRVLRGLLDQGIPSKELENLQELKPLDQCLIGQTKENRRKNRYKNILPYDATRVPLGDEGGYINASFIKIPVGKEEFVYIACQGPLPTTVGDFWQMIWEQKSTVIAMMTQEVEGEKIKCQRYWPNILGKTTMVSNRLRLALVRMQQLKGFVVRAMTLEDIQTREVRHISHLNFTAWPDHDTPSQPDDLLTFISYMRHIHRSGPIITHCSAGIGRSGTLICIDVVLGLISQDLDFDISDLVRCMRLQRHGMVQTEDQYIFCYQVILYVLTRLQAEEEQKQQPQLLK
method.summary: NVS_ENZ_hPTPN13: NovaScreen (NVS) Enzymatic Assay for human Protein Tyrosine Phosphatase Non-receptor Type 13 (PTPN13) (AID 2283205)
Records with an inconclusive call do not appear. Active and inactive are the calls of the source. How the source made its calls: active means hit-call score of the fitted dose curve at least 0.9, where 1 is the maximum; inconclusive means response in the unintended direction; inactive means score below 0.9.
endpoint.name: AC50

[
  {
    "compound.smiles": "O=C(O)c1ccc2c(c1)nc(C(=O)NC1CCN(C3CC3)CC1)n2Cc1cc(-c2ccc(Cl)s2)on1",
    "AC50": "0.257 µM (active)"
  },
  {
    "compound.smiles": "O=c1[nH]cnc2c1ncn2[C@H]1CC[C@@H](CO)O1",
    "AC50": "inactive"
  },
  {
    "compound.smiles": "OC(CCl)CCl",
    "AC50": "inactive"
  },
  {
    "compound.smiles": "Cc1nc(-c2ccccn2)ncc1C(=O)Nn1cc(C)c2cc(F)ccc21",
    "AC50": "33.8 µM (active)"
  }
]

Per the record, "CCCC(CCC)C(=O)O" has AC50 of inactive
